Literature survey of pIC50 (system: Proto-oncogene tyrosine-protein kinase Src (Homo sapiens)).
pIC50: −log10 of the molar value.
ASSAY METRIC: pIC50

[
  {
    "SMILES REPR": "C=CC(=O)N1CCC(N2CC(C#Cc3c(-c4ccc(Oc5ccccc5)cn4)c4c(N)ncnc4n3C)C2)CC1",
    "ASSAY METRIC": "pIC50",
    "RECORDED RESULT": "6.00 to 8.00"
  },
  {
    "SMILES REPR": "CCCS(=O)(=O)Nc1ccc(F)c(C(=O)c2c[nH]c3ncc(-c4ccnn4C)cc23)c1F",
    "ASSAY METRIC": "pIC50",
    "RECORDED RESULT": "≥ 5.00"
  },
  {
    "SMILES REPR": "CS(=O)(=O)c1cccc(-c2cnc3[nH]cc(C(=O)c4cccc(NS(=O)(=O)c5cccnc5)c4)c3c2)c1",
    "ASSAY METRIC": "pIC50",
    "RECORDED RESULT": "≥ 5.00"
  },
  {
    "SMILES REPR": "COc1ccc(-n2nc(C(C)(C)C)cc2NC(=O)Nc2ccc(Oc3ccnc(Nc4ccc5c(cnn5C)c4)n3)c3ccccc23)cc1",
    "ASSAY METRIC": "pIC50",
    "RECORDED RESULT": 7.80
  }
]

* * *

Literature survey of IC50 (system: Proto-oncogene tyrosine-protein kinase Src (Homo sapiens, UniProt P12931)).
ASSAY METRIC: IC50 (nM)

[
  {
    "MOLECULE": "N#Cc1ccnc2[nH]cc(C(=O)c3c(F)ccc(NS(=O)(=O)c4ccc(F)cc4F)c3F)c12",
    "MEASUREMENT TARGET": "Proto-oncogene tyrosine-protein kinase Src (Homo sapiens, UniProt P12931)",
    "MODIFIER SIGN": "≤",
    "RECORDED RESULT": 10000
  },
  {
    "MOLECULE": "COc1c(NC(=O)Nc2ccc(Oc3ccnc(Nc4cc(C#N)cc(OCCN5CCOCC5)c4)c3)c3ccccc23)cc(C(C)(C)C)cc1[S+](C)[O-] (stereo not shown)",
    "MEASUREMENT TARGET": "Proto-oncogene tyrosine-protein kinase Src (Homo sapiens, UniProt P12931)",
    "MODIFIER SIGN": "=",
    "RECORDED RESULT": 55
  },
  {
    "MOLECULE": "Cc1ccc(-n2nc(C(C)(C)C)cc2NC(=O)Nc2ccc(OCc3ccnc(Nc4cnc(CC(N)=O)cn4)c3)c3ccccc23)cc1",
    "MEASUREMENT TARGET": "Proto-oncogene tyrosine-protein kinase Src (Homo sapiens, UniProt P12931)",
    "MODIFIER SIGN": "=",
    "RECORDED RESULT": 19
  },
  {
    "MOLECULE": "N#Cc1nc2nc(Nc3ccc(N4CCOCC4)cc3)ncc2cc1-c1ccccc1Br",
    "MEASUREMENT TARGET": "Proto-oncogene tyrosine-protein kinase Src (Homo sapiens, UniProt P12931)",
    "MODIFIER SIGN": "=",
    "RECORDED RESULT": 6.5
  }
]

* * *

pIC50: −log10 of the molar value.
Literature survey of pIC50 (system: Proto-oncogene tyrosine-protein kinase Src (Homo sapiens)).

[
  {
    "SMILES REPR": "CCCS(=O)(=O)Nc1ccc(F)c(C(=O)c2c[nH]c3ncc(OC)cc23)c1F",
    "pIC50": "≥ 5.00"
  },
  {
    "SMILES REPR": "COc1cc(Nc2ncnc(Nc3cc(-c4cccs4)n[nH]3)n2)cc(OC)c1OC",
    "pIC50": "> 6.03"
  },
  {
    "SMILES REPR": "CCN(CC)CCOc1ccc(Nc2ncc3c(n2)N(C)C(=O)N(c2cc(NC(=O)C=Cc4ccccc4)ccc2Cl)C3)cc1",
    "pIC50": "7.82 to 9.00"
  },
  {
    "SMILES REPR": "CCS(=O)(=O)Nc1ccc(F)c(C(=O)c2c[nH]c3ncc(OC)cc23)c1F",
    "pIC50": "≥ 5.00"
  },
  {
    "SMILES REPR": "Cc1ccc(-n2nc(C(C)(C)C)cc2NC(=O)Nc2ccc(OCc3ccnc(Nc4cnc(C5CC5)cn4)c3)c3ccccc23)cc1",
    "pIC50": 5.60
  },
  {
    "SMILES REPR": "Cc1cccc(Nc2nc3c(NCCCN4CCOCC4)nccn3n2)c1",
    "pIC50": "4.30 to 5.52"
  },
  {
    "SMILES REPR": "CC(=O)Nc1cccc(Nc2ncc3cc(-c4ccccc4C)c(C(=O)NC[C@H]4CCCN4)nc3n2)c1",
    "pIC50": 9.15
  },
  {
    "SMILES REPR": "CN(C)S(=O)(=O)Nc1ccc(F)c(C(=O)c2c[nH]c3ncc(Br)cc23)c1F",
    "pIC50": "≥ 5.00"
  }
]

* * *

Literature survey of IC50 (system: Proto-oncogene tyrosine-protein kinase Src (Homo sapiens)).

[
  {
    "SMILES REPR": "COc1ccc(-c2cc3nccc(Nc4ccc5[nH]ccc5c4C)c3o2)c(OC)c1OC",
    "MEASUREMENT TARGET": "Proto-oncogene tyrosine-protein kinase Src (Homo sapiens)",
    "IC50": "< 300 nM"
  },
  {
    "SMILES REPR": "C[C@]1(O)CC[C@@H](Nc2nc3c(cc2OCCOCCO)ncn3-c2ccc(C#N)cn2)CC1",
    "MEASUREMENT TARGET": "Proto-oncogene tyrosine-protein kinase Src (Homo sapiens)",
    "IC50": "477 nM"
  },
  {
    "SMILES REPR": "Cc1cc(Nc2cc(Oc3ccc(NC(=O)Nc4cc(C(C)(C)C)nn4-c4ccc(OCCN(C)C)cc4)c4ccccc34)ccn2)cc2cn[nH]c12",
    "MEASUREMENT TARGET": "Proto-oncogene tyrosine-protein kinase Src (Homo sapiens)",
    "IC50": "< 1 nM"
  },
  {
    "SMILES REPR": "CC(C)c1cc(NC(=O)Nc2ccc(Oc3ccnc(Nc4cc(OCCN5CCOCC5)cc(C(F)(F)F)c4)n3)c3ccccc23)n(-c2cccc(CP(C)(C)=O)c2)n1",
    "MEASUREMENT TARGET": "Proto-oncogene tyrosine-protein kinase Src (Homo sapiens)",
    "IC50": "95 nM"
  },
  {
    "SMILES REPR": "CCC(=O)N1C[C@@H]2[C@@H](C#Cc3c(-c4ccc(F)c5c4OCO5)c4c(N)ncnc4n3C(C)C)[C@@H]2C1",
    "MEASUREMENT TARGET": "Proto-oncogene tyrosine-protein kinase Src (Homo sapiens)",
    "IC50": "≤ 10 nM"
  },
  {
    "SMILES REPR": "C=CC(=O)Nc1ccc(C(=O)Nc2cccc(Nc3n[nH]c4c3CN(C(=O)N[C@H](CN(C)C)c3ccccc3)C4(C)C)c2)cc1",
    "MEASUREMENT TARGET": "Proto-oncogene tyrosine-protein kinase Src (Homo sapiens)",
    "IC50": "< 100 nM"
  },
  {
    "SMILES REPR": "COc1ccc2c(c1)c(CCNC(C)=O)cn2-c1ncnc(Nc2cc(OC)c(OC)c(OC)c2)n1",
    "MEASUREMENT TARGET": "Proto-oncogene tyrosine-protein kinase Src (Homo sapiens)",
    "IC50": "> 9140 nM"
  }
]

* * *

Literature survey of pIC50 (system: Proto-oncogene tyrosine-protein kinase Src (Homo sapiens)).
pIC50: −log10 of the molar value.

[
  {
    "SMILES REPR": "COc1cc(Nc2ncnc(-n3ccc4cc(O)ccc43)n2)cc(OC)c1OC",
    "pIC50": "> 5.99"
  },
  {
    "SMILES REPR": "COc1cc(Nc2ncnc(-n3c(NCc4cccc(Br)c4)nc4ccccc43)n2)cc(OC)c1OC",
    "pIC50": "< 5.10"
  },
  {
    "SMILES REPR": "COCCOc1cnc2[nH]cc(C(=O)c3c(F)ccc(NS(=O)(=O)c4ccc(C(C)C)cc4)c3F)c2c1",
    "pIC50": "≥ 5.00"
  },
  {
    "SMILES REPR": "Cc1cnc2[nH]cc(C(=O)c3c(F)ccc(NS(=O)(=O)c4ccccn4)c3F)c2c1",
    "pIC50": "≥ 5.00"
  },
  {
    "SMILES REPR": "COc1cc(Nc2ncnc(Nc3ccc(C)c(F)c3)n2)cc(OC)c1OC",
    "pIC50": "> 5.98"
  },
  {
    "SMILES REPR": "N#Cc1cnc2[nH]cc(C(=O)c3c(F)ccc(NS(=O)(=O)c4ccccc4F)c3F)c2c1",
    "pIC50": "≥ 5.00"
  },
  {
    "SMILES REPR": "CC(C)(C)c1cc(NC(=O)Nc2ccc(Oc3ccnc(Nc4ccc5c(c4)OCO5)n3)c3ccccc23)n(-c2ccc(OCCN3CCOCC3)cc2)n1",
    "pIC50": 7.64
  },
  {
    "SMILES REPR": "Cc1cc(C)cc(S(=O)(=O)Nc2ccc(F)c(C(=O)c3c[nH]c4ncc(Cl)cc34)c2F)c1",
    "pIC50": "≥ 5.00"
  },
  {
    "SMILES REPR": "COC(=O)c1sccc1Nc1ncnc(Nc2cc(OC)c(OC)c(OC)c2)n1",
    "pIC50": "< 4.97"
  },
  {
    "SMILES REPR": "Nc1cccc(-c2cnc3[nH]cc(C(=O)c4cccc(O)c4)c3c2)c1",
    "pIC50": "≥ 5.00"
  },
  {
    "SMILES REPR": "Cc1ccc(-n2nc(C(C)(C)C)cc2NC(=O)Nc2ccc(OCc3ccnc(Nc4cncc(CC(N)=O)n4)c3)c3ccccc23)cc1",
    "pIC50": 7.60
  },
  {
    "SMILES REPR": "COc1c(NC(=O)Nc2ccc(Oc3ccnc(Nc4ccc(C(=O)O)c(N(C)C)c4)c3)c3ccccc23)cc(C(C)(C)C)cc1NS(C)(=O)=O",
    "pIC50": 7.17
  },
  {
    "SMILES REPR": "CCN(CC)CCOc1ccc(Nc2ncc3cc(-c4ccccc4C)n(C)c(=O)c3n2)cc1",
    "pIC50": "6.30 to 9.00"
  },
  {
    "SMILES REPR": "Cc1ccc(-n2nc(C(C)(C)C)cc2NC(=O)Nc2ccc(OCc3ccnc(Nc4cncc(C5CCC5)n4)c3)c3ccccc23)cc1",
    "pIC50": 6.40
  },
  {
    "SMILES REPR": "CCN1Cc2c(ccc(F)c2C#N)O[C@@H](C)CNC(=O)c2cnn3ccc1nc23",
    "pIC50": 9.31
  }
]
